Value source: PubChem BioAssay AID1963441

System: NCI-H1876 complex spheroid growth, % test/control
Assay Summary: Anticancer human tumor NCI-H1876 cell line growth inhibition [Asc];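 further: compound exposure lasted 7 days starting three days after seeding; 100% = DMSO vehicle control wells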
Condition Set: second compound 0.949 µM; first compound 1 µM; stronger effect = lower value
Source text: Multicellular complex tumor spheroid response to apoptosis pathway targeting inhibitors Alrizomadlin, Pelcitoclax, and Dasminapant in combination with a variety of drugs and investigational agents in selected tumor cell lines […] Compounds. […] If the clinical Cmax for an agent had not been determined, the highest concentration tested was 10 microM. […]
Please go through the items and note down their viability, T/C.

(Q) Quick one: viability, T/C of C=C(F)C(=O)N1CCN(c2nc(OCC3CCCN3C)nc3c2CCN(c2cccc4cccc(Cl)c24)C3)CC1CC#N (configuration not stated) + CCN1C(C(=O)NC23CCC(C(=O)O)(CC2)CC3)C(c2cccc(Cl)c2F)C2(C(=O)Nc3cc(Cl)ccc32)C12CCCCC2 ?
(A) 116%

(Q) Quick one: viability, T/C of C=CC(=O)N1CCN(c2nc(=O)n(-c3c(C)ccnc3C(C)C)c3nc(-c4c(O)cccc4F)c(F)cc23)C(C)C1 (configuration not stated) + CCN1C(C(=O)NC23CCC(C(=O)O)(CC2)CC3)C(c2cccc(Cl)c2F)C2(C(=O)Nc3cc(Cl)ccc32)C12CCCCC2 ?
(A) 114%
